- target-under-test: Serine/threonine-protein kinase pim-3 (Homo sapiens, UniProt Q86V86)
experimental-endpoint: pIC50
To interpret pIC50, take it as minus log10 of a concentration measured in moles per litre.

Exercise: What value of pIC50 has been recorded for this entry: O=[N+]([O-])c1cc2[nH]ncc2c2c1ncc1cc3c(cc12)OCO3
Key: 6.40

###

- target-under-test: Serine/threonine-protein kinase pim-2 (Homo sapiens)
- assay-overview: Inhibition of full-length human PIM2 using RSRHSSYPAGT as substrate assessed as residual kinase activity at 10 uM after 30 mins in presence of [gamma-33P]ATP
experimental-endpoint: Activity (%)
Give the value in % but do not write % after it.

COc1ccc2c(cnc3c([N+](=O)[O-])cc4[nH]ncc4c32)c1: 55

Exercise: What value of Activity has been recorded for this entry: O=[N+]([O-])c1cc2[nH]ncc2c2c1ncc1cc3c(cc12)OCO3
Key: 54

Exercise: What value of Activity has been recorded for this entry: O=[N+]([O-])c1cc2[nH]ncc2c2c1ncc1c(F)cccc12
Key: 66

Exercise: What value of Activity has been recorded for this entry: Nc1cc2[nH]ncc2c2c1ncc1ccccc12
Key: 43

###

- target-under-test: Serine/threonine-protein kinase pim-3 (Homo sapiens, UniProt Q86V86)
- assay-overview: Inhibition of full-length human PIM3 using RSRHSSYPAGT as substrate assessed as residual kinase activity at 10 uM after 30 mins in presence of [gamma-33P]ATP
experimental-endpoint: Activity (%)
Give the value in % but do not write % after it.

COc1ccc2c(cnc3c([N+](=O)[O-])cc4[nH]ncc4c32)c1: 5.5
Nc1cc2[nH]ncc2c2c1ncc1c(F)cccc12: 7.9
O=[N+]([O-])c1cc2[nH]ncc2c2c1ncc1cc3c(cc12)OCO3: 7

Note: attention shifts to another entry.
Exercise: What value of Activity has been recorded for this entry: COc1ccc2c(cnc3c(N)cc4[nH]ncc4c32)c1
Key: 16.5

###

# maps each entry to its Activity
- target-under-test: Serine/threonine-protein kinase pim-2 (Homo sapiens)
- assay-overview: Inhibition of full-length human PIM2 using RSRHSSYPAGT as substrate assessed as residual kinase activity at 1 uM after 30 mins in presence of [gamma-33P]ATP

Use these answered entries as a reference point.
COc1ccc2c(cnc3c(N)cc4[nH]ncc4c32)c1: 100%
COc1ccc2c(cnc3c([N+](=O)[O-])cc4[nH]ncc4c32)c1: 64%
O=[N+]([O-])c1cc2[nH]ncc2c2c1ncc1c(F)cccc12: 84%
O=[N+]([O-])c1cc2[nH]ncc2c2c1ncc1ccccc12: 46%
O=[N+]([O-])c1cc2[nH]ncc2c2c1ncc1ccc(Cl)cc12: 83%
Nc1cc2[nH]ncc2c2c1ncc1ccccc12: 86%

Exercise: API: value(readout=Activity, system=Serine/threonine-protein kinase pim-2 (Homo sapiens)) for record Nc1cc2[nH]ncc2c2c1ncc1ccc(Cl)cc12
Key: 96%

Exercise: API: value(readout=Activity, system=Serine/threonine-protein kinase pim-2 (Homo sapiens)) for record c1ccc2c(c1)cnc1ccc3[nH]ncc3c12
Key: 84.6%

Exercise: API: value(readout=Activity, system=Serine/threonine-protein kinase pim-2 (Homo sapiens)) for record Nc1cc2[nH]ncc2c2c1ncc1c(F)cccc12
Key: 110%

Exercise: API: value(readout=Activity, system=Serine/threonine-protein kinase pim-2 (Homo sapiens)) for record O=[N+]([O-])c1cc2[nH]ncc2c2c1ncc1cc3c(cc12)OCO3
Key: 92%
